System: ACHN renal
Assay: NCI-60 one-dose screen, 48 h (100 = growth as untreated, 0 = no growth, -100 = all killed)
Conditions: 10 µM unless noted
About 83,000 compounds went through this panel and 20% of them were active in at least one assay; those are over-represented in the sample as a whole.
ENDPOINT_NAME: growth (%)
Expressed in %, but write only the number.

COMPOUND	growth [%]
Oc1ccc(Cl)cc1/C=N\NC(=S)N/N=C/c1cc(Cl)ccc1O	15.3
CCCn1cc2c(=O)nc3sc(Cc4ccccc4)c(C)n3c2n1	109
O=C(CN1C(=O)NC2NC(=O)NC21)N/N=C/c1ccccc1[N+](=O)[O-] (stereo not given)	103

Value lookup for growth; key = Oc1c(Br)cc(Br)c2ccc(Cn3cc(-c4ccc(C(F)(F)F)cc4)nn3)nc12
26.4

Let us now turn to CN(C)Cc1ccc(O)c(C(=O)O)c1
101

Let us now turn to CCC(C)(C)C(=O)O[C@H]1C[C@@H](C)C=C2C=C[C@H](C)[C@H](CC[C@@H]3CC(SCCN)CC(=O)O3)[C@H]21 (stereo not given in full)
95.8

Let us now turn to C#CCOC(=O)/C=C/c1cn(-c2ccccc2)nc1-c1ccc(OC)cc1
77

Let us now turn to C=CCn1c(SCC(=O)Nc2ccc(C(=O)/C=C/c3ccc(Cl)cc3)cc2)nnc1-c1ccc(Br)cc1
78.3

Let us now turn to Fc1ccc(CNc2c3ccccc3nc3ccccc23)c(F)c1
23.4

Let us now turn to COC(=O)c1nc(-c2ccc(C)cc2)oc1S(=O)(=O)c1cccc(OC)c1
42.8

Let us now turn to O=C(CSc1nnc(-c2cnccn2)n1-c1ccccc1)c1ccc(Cl)cc1
99.8

Let us now turn to COc1cc2c(cc1OCCCN1CCN(CCCOc3cc4c(cc3OC)C(=O)N3CC(F)(F)C[C@H]3C=N4)CC1)N=C[C@@H]1CC(F)(F)CN1C2=O
78.3

Let us now turn to Nc1nc(N)c(-c2ccc(Cl)c(Cl)c2)c(CBr)n1
68.4

Let us now turn to O=C(O)CCN1C(=O)/C(=C/C(Cl)=C/c2ccccc2)SC1=S
-65.3

Let us now turn to CCOC(=O)[C@@H]1CSC(CC)=C(C(=O)O)N1
97.6

Let us now turn to Cc1ccc(C[P+](c2ccccc2)(c2ccccc2)c2ccccc2)cc1
24.4

Let us now turn to CC1CCN(S(=O)(=O)c2ccc(S(=O)(=O)N3CCCC(c4nc5c(nnn5Cc5cccc(Cl)c5)c(=O)[nH]4)C3)cc2)CC1 (stereo not given)
71.7

---

Tested on: HCT-116 colon
Test: NCI-60 one-dose screen, 48 h
Settings: 10 µM unless noted
Description: Growth inhibition of the HCT-116 human tumor cell line is measured as a screen for anti-cancer activity. Cells are grown in 96 well plates and exposed to the test compound for 48 hours. Compounds are tested at a single concentration, which is 10^-5 M for most compounds. The reported endpoint is percent growth (GI% or GIPRCNT), where numbers from 0 - 100% represent growth inhibition, and numbers from -100% - 0 represent cell death. For example, a value of 40 represents 60% growth inhibition. […]
The panel holds about 83,000 compounds, 20% with a hit somewhere; the sample as a whole holds those more often. Active and inactive are the calls of the source. Rule for the calls: active = growth percent below 10; inactive = the rest.
I would appreciate it if you answered using one of these outcomes: 1.0 (active), 0.0 (inactive)

Use these answered entries as a reference point.
COMPOUND	TEST_SYSTEM	LABEL_VALUE
CC(C)=CCCC(C)c1ccc(C)c2c1OCN(CCCCCO)C2 (stereo not given)	HCT-116 colon	0.0
Cn1c(=O)cc2c3c(c(NCCCO)ccc31)C(=O)c1ccccc1-2	HCT-116 colon	0.0
Cc1ccc(C)n1-c1ccccc1-n1c(C)ccc1C	HCT-116 colon	0.0
CN1CCc2nc3sc(C(N)=O)c(N)c3c(-c3cccs3)c2C1	HCT-116 colon	1.0
O=C1/C(=C/c2ccccc2Br)COc2ccc(O)cc21	HCT-116 colon	0.0

Called result for C=CCN=c1sc2c(n1NC(=O)c1cc3ccc1CCc1ccc(cc1)CC3)C(=O)c1ccccc1C2=O
1.0

Let us now turn to CC1=C2[C@@H](CC1)[C@]1(C)O[C@@](C(C)C)(C[C@H]1OC(=O)[C@H](C)O)[C@H]2OC(=O)/C=C/c1ccccc1
0.0

Let us now turn to Cc1ccc(/C=C2\COc3ccc(O)cc3C2=O)cc1
0.0

Let us now turn to Nc1nc2ccccc2c2c1S(=O)(=O)c1ccc(Cl)cc1C2=O
1.0

Let us now turn to O=C(O)c1ccc(-n2cc(/C=N/Nc3ccccc3)c(-c3ccc(F)cc3F)n2)cc1
0.0

---

Test system: SK-MEL-5 melanoma
Assay: NCI-60 one-dose screen, 48 h
Settings: 10 µM unless noted
About 83,000 compounds went through this panel and 20% of them were active in at least one assay; those are over-represented in the sample as a whole. Activity calls are given as the source filed them. How the source made its calls: active means growth percent below 10; inactive means the rest.
I would appreciate it if you answered using one of these outcomes: y for active, n for inactive

COMPOUND	TEST_SYSTEM	LABEL_VALUE
Cc1ccc(C2=Nc3c(N)ncnc3NC(c3cccc(Nc4ccnc5cc(C(F)(F)F)ccc45)c3)C2)cc1 (centres undefined)	SK-MEL-5 melanoma	n
Clc1ccc2c(c1)C(c1c[nH]c3ccccc13)(c1c[nH]c3ccccc13)CCO2	SK-MEL-5 melanoma	n
C=C(C)[C@@H]1CCC[C@]2(COS(=O)(=O)c3ccc(C)cc3)CC[C@]3(C)[C@@H](CC[C@@H]4[C@@]5(C)CCCNC(C)(C)[C@@H]5CC[C@]43C)[C@@H]12	SK-MEL-5 melanoma	n
Cn1cc(-c2csc(-c3c[nH]c4ccccc34)n2)c2cnccc21	SK-MEL-5 melanoma	n
Clc1cccc(Nc2ncnc3ccc(-c4cnc5[nH]ccc5c4)cc23)c1	SK-MEL-5 melanoma	n

Called result for CCOC(=O)C#Cc1c(C(=O)OCC)nnn1Cc1ccc([N+](=O)[O-])cc1
n

Let us now turn to COc1ccc(C/C(C)=C(\c2ccc(Cl)cc2)c2ccc(OCCN3CCCCC3)cc2)cc1
n

Let us now turn to COc1cc(-c2nccc3[nH]c(-c4ccc5cc[nH]c5c4)nc23)cc(OC)c1OC
y

Let us now turn to O=c1c2cccc3c(N4CCCC4)ccc(c32)c2nc3ccccc3n12
n

---

Tested on: M14 melanoma
Assay: NCI-60 one-dose screen, 48 h
Conditions: 10 µM unless noted
Description: Growth inhibition of the M14 human tumor cell line is measured as a screen for anti-cancer activity. Cells are grown in 96 well plates and exposed to the test compound for 48 hours. Compounds are tested at a single concentration, which is 10^-5 M for most compounds. The reported endpoint is percent growth (GI% or GIPRCNT), where numbers from 0 - 100% represent growth inhibition, and numbers from -100% - 0 represent cell death. For example, a value of 40 represents 60% growth inhibition. […]
This is part of a sample that, as a whole, favours compounds with a hit. Of some 83,000 tested, about 20% had one in any assay. Calls of active or inactive are those of the source. How the source made its calls: active means growth percent below 10; inactive means the rest.
I would appreciate it if you answered using one of these outcomes: true (1) = active, false (0) = inactive

Use these answered entries as a reference point.
COMPOUND	LABEL_VALUE
CCN1CCN(C(=O)[C@]23CCC(C)(C)C[C@@H]2C2=CC[C@@H]4[C@@]5(C)CCC(=O)C(C)(C)[C@@H]5CC[C@@]4(C)[C@]2(C)CC3)CC1	false (0)
CCN(CC)CCCCCNc1cc(OC(=O)c2ccc(Cl)cc2)cc2cccnc12	false (0)
Nc1c(C(=O)Nc2ccccc2C(F)(F)F)sc2nc3c(cc12)CCC3	false (0)
O=C(Nc1nc(-c2ccc(Cl)cc2)nc2c1sc(=S)n2-c1ccccc1)C(F)(F)F	false (0)
COc1ccc(C(=O)C/C(=C\c2ccc(Cl)cc2)C(=O)NCc2ccccc2)cc1	false (0)
COC12C=C/C(=C(/C(=O)OCc3ccncc3)C(=O)CCCCCCCCC3(OC)C=C/C(=C(/C(=O)OCc4ccncc4)C(=O)CCCCCCCC1)O3)O2	true (1)

Called result for CCN(CC)S(=O)(=O)c1ccc(S(=O)(=O)N2CCC[C@@H](C(=O)N3CCN(c4nc(C(C)C)no4)CC3)C2)cc1
false (0)

Let us now turn to N#CSc1c[nH]c2cccc(/C=C/C(=O)/C=C(/C=C/c3cccc4[nH]cc(SC#N)c34)OB(F)F)c12
true (1)

Let us now turn to COC(=O)c1c(C)nc(C)c2c1C(=O)C(Br)=C(NCc1ccccc1)C2=O
false (0)

Let us now turn to Nc1cc(C(=O)NC[C@H]2CN(c3ccc(N4CCC(C(=O)O)CC4)cc3)C(=O)O2)ccc1Cl
false (0)

Let us now turn to COc1cc(-c2csc(NC(=O)c3ccc(N4CCOCC4)c(C(F)(F)F)c3)n2)cc(OC)c1OC
false (0)

Let us now turn to CC/C(=C(/c1ccc(Cl)cc1)c1ccc(OCCN2CCCCC2)cc1)c1ccc(OC)cc1
false (0)
